- tgt: Prostaglandin G/H synthase 1 (Homo sapiens)
- Sequence (P23219 whole entry): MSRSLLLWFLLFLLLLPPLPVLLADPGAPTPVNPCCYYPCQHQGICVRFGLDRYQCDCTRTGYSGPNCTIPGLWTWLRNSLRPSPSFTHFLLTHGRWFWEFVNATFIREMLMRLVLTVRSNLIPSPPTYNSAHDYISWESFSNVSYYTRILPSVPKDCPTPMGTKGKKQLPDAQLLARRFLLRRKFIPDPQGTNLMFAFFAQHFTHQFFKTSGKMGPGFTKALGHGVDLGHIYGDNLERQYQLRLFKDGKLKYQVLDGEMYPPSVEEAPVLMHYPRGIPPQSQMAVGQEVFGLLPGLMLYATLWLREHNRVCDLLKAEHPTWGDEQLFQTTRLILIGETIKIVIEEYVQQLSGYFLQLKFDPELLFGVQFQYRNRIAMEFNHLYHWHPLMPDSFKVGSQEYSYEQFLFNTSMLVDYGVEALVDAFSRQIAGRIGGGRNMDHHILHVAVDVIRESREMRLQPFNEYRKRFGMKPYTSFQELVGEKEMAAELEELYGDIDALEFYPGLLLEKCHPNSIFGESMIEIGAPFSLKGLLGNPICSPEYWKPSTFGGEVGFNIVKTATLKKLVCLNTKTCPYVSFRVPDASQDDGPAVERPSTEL
- procedure text: Inhibitory concentration against prostaglandin G/H synthase 1 of human whole blood
Let's look at some molecules and their measured IC50.

| molecule | IC50 |
| --- | --- |
| CC1(O)OC(=O)C(c2ccc(Cl)cc2)=C1c1ccc(S(C)(=O)=O)cc1 (configuration not stated) | > 86 µM |

## Input Return IC50 for the following molecule: CC[C@]1(C)OC(=O)C(OC(C)C)=C1c1ccc(S(C)(=O)=O)cc1
## Output > 86 µM

* * *

- procedure text: Plasma level measured at 30 min in sprague-dawley rat upon intravenous administration
- Assay type: ADME
- cond: read-out: Plasma level
measured parameter: concentration at 0.5 h (nM)
Provide only the numeric value, understood in nM.

## Input Return concentration at 0.5 h for the following compound: CC[C@]1(C)OC2(OCC(COP(=O)([O-])OCC[N+](C)(C)C)O2)C(OC(C)C)=C1c1ccc(S(C)(=O)=O)cc1 (some centres not stated)
## Output 200

* * *

- procedure text: Plasma level of compound 2 measured at 30 min in sprague-dawley rat after 2 mg/kg intravenous administration of compound
- Format: ADME, organism-based
- Design: dose 2 mg/kg, route intravenous
- cond: in vivo, 0.5 h, read-out: Plasma level
measured parameter: concentration (nM)

| compound | concentration / nM |
| --- | --- |
| CC[C@]1(C)OC2(OCC(COP(=O)([O-])OCC[N+](C)(C)C)O2)C(OC(C)C)=C1c1ccc(S(C)(=O)=O)cc1 (stereo partly specified) | 200 |

[A] CC[C@]1(C)OC2(OCC(C3OC(=O)C(O)=C3O)O2)C(OC(C)C)=C1c1ccc(S(C)(=O)=O)cc1 (stereo partly specified)
[B] CC[C@]1(C)OC2(OCC(CO)O2)C(OC(C)C)=C1c1ccc(S(C)(=O)=O)cc1 (stereo partly specified)
[C] CC[C@]1(C)OC2(OCC(COC(=O)CCC(=O)[O-])O2)C(OC(C)C)=C1c1ccc(S(C)(=O)=O)cc1.[Na+] (stereo partly specified)
## Input Let's sort these by concentration, smallest first. Go ahead? Give the labels in the order requested.
## Output A, C, B
(A: 100 nM, C: 400 nM, B: 2800 nM)

These data points were gathered from ChEMBL document CHEMBL1144376.
